molecular target: ROCK2 (Homo sapiens (Human), UniProt O75116)
Sequence (O75116 whole entry, species assumed): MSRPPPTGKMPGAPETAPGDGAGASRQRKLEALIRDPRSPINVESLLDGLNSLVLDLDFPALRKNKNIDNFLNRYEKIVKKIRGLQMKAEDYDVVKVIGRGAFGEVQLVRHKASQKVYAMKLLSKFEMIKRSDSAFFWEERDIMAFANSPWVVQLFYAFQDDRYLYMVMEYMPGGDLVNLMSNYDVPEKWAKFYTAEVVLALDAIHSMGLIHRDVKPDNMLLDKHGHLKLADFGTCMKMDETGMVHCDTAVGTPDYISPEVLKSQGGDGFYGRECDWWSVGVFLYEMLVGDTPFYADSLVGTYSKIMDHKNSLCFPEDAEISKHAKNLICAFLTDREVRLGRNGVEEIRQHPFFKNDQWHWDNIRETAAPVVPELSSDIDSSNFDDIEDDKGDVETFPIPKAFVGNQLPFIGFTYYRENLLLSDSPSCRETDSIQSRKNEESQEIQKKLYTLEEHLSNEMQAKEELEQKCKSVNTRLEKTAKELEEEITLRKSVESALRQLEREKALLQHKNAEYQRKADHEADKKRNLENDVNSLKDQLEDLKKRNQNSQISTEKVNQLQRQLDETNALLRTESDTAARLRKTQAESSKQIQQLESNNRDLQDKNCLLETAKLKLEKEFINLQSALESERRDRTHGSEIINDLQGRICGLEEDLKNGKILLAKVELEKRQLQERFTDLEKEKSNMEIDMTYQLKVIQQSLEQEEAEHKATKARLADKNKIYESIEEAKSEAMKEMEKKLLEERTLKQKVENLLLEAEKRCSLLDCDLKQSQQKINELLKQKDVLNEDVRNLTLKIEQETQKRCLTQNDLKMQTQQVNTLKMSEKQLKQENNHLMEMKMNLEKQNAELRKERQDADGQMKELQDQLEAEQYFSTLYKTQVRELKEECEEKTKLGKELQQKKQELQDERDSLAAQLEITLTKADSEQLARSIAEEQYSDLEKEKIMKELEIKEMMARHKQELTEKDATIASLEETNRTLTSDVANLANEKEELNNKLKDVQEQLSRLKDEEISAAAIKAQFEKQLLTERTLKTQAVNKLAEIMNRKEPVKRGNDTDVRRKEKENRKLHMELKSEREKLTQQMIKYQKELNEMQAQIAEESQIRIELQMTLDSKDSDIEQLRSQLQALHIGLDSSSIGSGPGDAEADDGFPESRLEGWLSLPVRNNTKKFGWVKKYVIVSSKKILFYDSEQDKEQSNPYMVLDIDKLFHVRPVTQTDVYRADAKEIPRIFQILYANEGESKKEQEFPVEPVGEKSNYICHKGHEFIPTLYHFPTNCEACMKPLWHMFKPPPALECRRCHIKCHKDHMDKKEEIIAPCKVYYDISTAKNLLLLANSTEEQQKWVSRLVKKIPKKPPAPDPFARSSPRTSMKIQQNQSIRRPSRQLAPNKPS
EXPERIMENTAL ENDPOINT: IC50 (nM)

Illustrative cases are given below, each with its answer.
{"MOLECULE": "COCCn1c(NC(=O)Cc2ccc(Oc3ncccc3C(N)=O)c(F)c2)nc2ccc(C(N)=O)cc21 [Example 158]", "QUANTITATIVE RESULT": 1720}
{"MOLECULE": "COC(=O)c1ccc2nc(NC(=O)Cc3ccc(Oc4ncccc4C(N)=O)cc3)sc2c1 [Example 070]", "QUANTITATIVE RESULT": 57}
{"MOLECULE": "NC(=O)c1cccnc1Oc1ccc(CC(=O)Nc2nc3cccc(Cl)c3[nH]2)cc1 [Example 073]", "QUANTITATIVE RESULT": 244}

a = Cc1cccc2nc(NC(=O)Cc3ccc(Oc4ncccc4C(N)=O)c(F)c3)nn12 [Example 096]
b = NC(=O)c1cccnc1Oc1ccc(CC(=O)Nc2nc3c(F)cccc3n2CC2CC2)cc1Cl [Example 171]
Qu. // pick min by IC50: a , b Write down the label of the entry you select.
Ans. b
